# study-target: Glucocorticoid receptor (Homo sapiens)
# run-description: GR-EFC Redistribution (AID 451); note: potency is the fitted concentration of half-maximal effect
# experimental-context: CHO-K1 GR-EFC translocation, beta-gal luminescence, 2 h
The source made the active and inactive calls. Calls come from the whole dose curve.

[
  {
    "molecule": "O[C@@H](COc1cccc2ccccc12)CN1CCOCC1",
    "Potency": "> 9.22 µM (inactive)"
  },
  {
    "molecule": "C[C@H](CN(C)C)C(=O)c1ccccc1C(=O)O",
    "Potency": "> 9.22 µM (inactive)"
  },
  {
    "molecule": "CC(C)(C[C@@]1(C)NC(=O)NC1=O)OCc1ccccc1",
    "Potency": "> 9.22 µM (inactive)"
  },
  {
    "molecule": "O=C1Nc2ccccc2C1=Nc1ccc(S(=O)(=O)Nc2nccs2)cc1",
    "Potency": "> 9.22 µM (inactive)"
  },
  {
    "molecule": "CSc1ccc(NC(=O)[C@H]2CCCC[C@@H]2C(=O)O)cc1",
    "Potency": "> 9.22 µM (inactive)"
  },
  {
    "molecule": "N#CCCn1c(=O)c(-c2cccs2)nc2cnc(Oc3cccc(Cl)c3)nc21",
    "Potency": "> 46 µM (inactive)"
  },
  {
    "molecule": "N=C(N)SCCc1ccncc1",
    "Potency": "> 9.22 µM (inactive)"
  },
  {
    "molecule": "NC(=O)[C@@H]1CCCNC1",
    "Potency": "> 9.22 µM (inactive)"
  },
  {
    "molecule": "O=c1c(-c2ccccc2)nc2cnc(N3CCNCC3)nc2n1Cc1ccc(F)cc1",
    "Potency": "> 46 µM (inactive)"
  },
  {
    "molecule": "CCCC[C@]1(C2CCCC2)Cc2cc(OCC(=O)O)c(Cl)c(Cl)c2C1=O",
    "Potency": "> 46 µM (inactive)"
  },
  {
    "molecule": "NC(=O)N/N=C1\\CC[C@H](O)C[C@@H]1CC(=O)O",
    "Potency": "> 9.22 µM (inactive)"
  },
  {
    "molecule": "CCNc1ncc2nc(C)c(=O)n(Cc3cccc(OC)c3)c2n1",
    "Potency": "> 46 µM (inactive)"
  }
]

These data points were gathered from PubChem BioAssay (NCATS).
